Source: patent US20070129410A1

System: MMP-1 (Matrix Metalloproteinase-1) production
Assay summary: Glucocorticoid inhibition of IL-1 induced MMP-1 production in SW1353 human chondrosarcoma cells
Assay type: cell-based
Condition label: 20 ng/ml IL-1 beta, 72 hours after IL-1 addition, ELISA, read-out: IC50, inhibition of MMP1 expression
Readout label: pIC50
Give bare numbers, as −log10 of the molar value.

IN: Give pIC50 for C[C@@H]1C[C@H]2[C@@H]3CCC4=CC(=O)C=C[C@]4(C)[C@@]3(F)[C@@H](O)C[C@]2(C)[C@@]1(O)C(=O)CO
OUT: 8.30
